IC50 overview
- assayTarget: CREBBP (Homo sapiens (Human), UniProt Q92793)
- Sequence (Q92793 1081-1197): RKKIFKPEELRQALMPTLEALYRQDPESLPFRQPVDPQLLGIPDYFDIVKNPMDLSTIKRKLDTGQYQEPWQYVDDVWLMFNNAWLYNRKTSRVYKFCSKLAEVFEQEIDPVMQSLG
- assayText: In vitro enzyme inhibition assay - CREBBP inhibition (AlphaScreen, biotinylated H4-tetraacetyl peptide)
- Assay type: binding
- conditionSummary: Table 28; AlphaScreen, H4-tetraacetyl peptide

CCCCS(=O)(=O)Nc1nc(Oc2c(F)cccc2Cl)nc(-c2cc(C)c(=O)n(C)c2)n1 ... < 500 nM
CCCS(=O)(=O)Nc1cc(-c2ccc(=O)n(C)c2)nc(Oc2c(C)cccc2Cl)n1 ... < 500 nM
CCCCS(=O)(=O)Nc1cc(-c2cc(C)c(=O)n(C)c2)nc(Oc2c(C)nn(CC)c2C)n1 ... < 500 nM
CC[C@H](C)S(=O)(=O)Nc1cc(-c2ccc(=O)n(C)c2)nc(Oc2c(F)cccc2F)n1 ... < 500 nM
CCCCS(=O)(=O)Nc1cc(-c2ccc(=O)n(C)c2)nc(Oc2c(C)ccc(F)c2F)n1 ... < 500 nM

stdin: Quick one: IC50 of CCNc1cc(-c2ccc(=O)n(C)c2)nc(Oc2c(C)cccc2F)n1 ?
stdout: < 500 nM

stdin: Quick one: IC50 of CCS(=O)(=O)Nc1nc(Oc2c(C)cccc2F)nc(-c2cc(C)c(=O)n(C)c2)c1C ?
stdout: < 500 nM

stdin: Quick one: IC50 of CCCS(=O)(=O)Nc1cc(-c2ccc(=O)n(C)c2)nc(Oc2c(C)cccc2C#N)n1 ?
stdout: < 500 nM

stdin: Quick one: IC50 of CCCS(=O)(=O)Nc1cc(-c2ccc(=O)n(C)c2)nc(Oc2c(F)cccc2C2CC2)n1 ?
stdout: < 500 nM

stdin: Quick one: IC50 of Cc1cc(-c2cc(NC(=O)CC(C)C)nc(Oc3ccc(F)cc3F)n2)cn(C)c1=O ?
stdout: 500 to 5000 nM

stdin: Quick one: IC50 of CCCS(=O)(=O)Nc1cc(Oc2c(C)cc(Cl)cc2Cl)nc(-c2cc(C)c(=O)n(C)c2)n1 ?
stdout: < 500 nM

stdin: Quick one: IC50 of CCCS(=O)(=O)Nc1cc(-c2cc(C)c(=O)n(C)c2)nc(Oc2ccncc2C)n1 ?
stdout: 500 to 5000 nM

stdin: Quick one: IC50 of Cc1cc(-c2cc(NS(=O)(=O)C(C)C)nc(Oc3ccc(F)cc3)n2)cn(C)c1=O ?
stdout: < 500 nM

* * *

- assayTarget: CREBBP (Homo sapiens (Human), UniProt Q92793)
- assayText: In vitro enzyme inhibition assay - CREBBP inhibition (AlphaScreen, biotinylated H4-tetraacetyl peptide)
- Type: binding
- conditionSummary: Table 28; AlphaScreen, H4-tetraacetyl peptide
IC50 overview

CCc1cccc(F)c1Oc1nc(NS(=O)(=O)[C@@H](C)CC)cc(-c2ccc(=O)n(C)c2)n1 ... < 0.5 µM
CCCS(=O)(=O)Nc1cc(-c2cc(C)c(=O)n(C3CC3)c2)nc(Oc2c(C)cccc2C)n1 ... 0.5 to 5 µM
Cc1ccc(C)c(CNc2cc(-c3ccc(=O)n(C)c3)nc(Oc3c(C)cccc3F)n2)c1 ... < 0.5 µM

Please turn your attention to the following entry.
stdin: Quick one: IC50 of Cc1cccc(C)c1Oc1nc(NS(=O)(=O)CC2CC2)cc(-c2cc(C)c(=O)n(C)c2)n1 ?
stdout: < 0.5 µM

* * *

IC50 overview
- assayTarget: CREBBP (Homo sapiens (Human))
- assayText: In vitro enzyme inhibition assay - CREBBP inhibition (AlphaScreen, biotinylated H4-tetraacetyl peptide)
- Format: binding
- conditionSummary: Table 28; AlphaScreen, H4-tetraacetyl peptide

Cc1cccc(C)c1Oc1nc(NS(=O)(=O)CC(C)C)cc(-c2cc(C)c(=O)n(C)c2)n1 ... < 500 nM

stdin: Lab request: please report IC50 under test system CREBBP (Homo sapiens (Human)) for CCC(C)S(=O)(=O)Nc1cc(-c2ccc(=O)n(C)c2)nc(Oc2c(C)cc(F)cc2F)n1 (stereo not shown)
stdout: < 500 nM

stdin: Lab request: please report IC50 under test system CREBBP (Homo sapiens (Human)) for CCCCS(=O)(=O)Nc1cc(-c2ccc(=O)n(C)c2)nc(OC2CCCCC2)n1
stdout: < 500 nM

* * *

- assayTarget: CREBBP (Homo sapiens (Human), UniProt Q92793)
- assayText: In vitro enzyme inhibition assay - CREBBP inhibition (AlphaScreen, biotinylated H4-tetraacetyl peptide)
- Format: binding
- conditionSummary: Table 28; AlphaScreen, H4-tetraacetyl peptide
IC50 overview

CCS(=O)(=O)Nc1cc(-c2ccc(=O)n(C)c2)nc(-c2ccc(C)cc2OC)n1 [Example 194] ... 500 to 5000 nM
CCCS(=O)(=O)Nc1cc(-c2ccc(=O)n(C)c2)nc(OC2CCCCC2)n1 [Example 245] ... < 500 nM
Cc1cc(-c2cc(NS(=O)(=O)C(C)C)nc(OCC(C)C)n2)cn(C)c1=O [Example 152] ... < 500 nM

stdin: Quick one: IC50 of Cc1ccc(Cl)cc1Oc1nc(NS(=O)(=O)C(C)C)cc(-c2cc(C)c(=O)n(C)c2)n1 [Example 6] ?
stdout: < 500 nM

* * *

IC50 overview
- assayTarget: CREBBP (Homo sapiens (Human), UniProt Q92793)
- assayText: In vitro enzyme inhibition assay - CREBBP inhibition (AlphaScreen, biotinylated H4-tetraacetyl peptide)
- Format: binding
- conditionSummary: Table 28; AlphaScreen, H4-tetraacetyl peptide

Past entries and their recorded results:
COc1nc(NC(C)c2ccccc2)cc(-c2ccc(=O)n(C)c2)n1 (stereo not shown) [Example 327] ... < 500 nM
CCCCS(=O)(=O)Nc1cc(-c2ccc(=O)n(C)c2)nc(Oc2c(F)ccc(F)c2C)n1 [Example 350] ... < 500 nM
Cc1cccc(F)c1Oc1nc(N[C@H]2CCCc3ccccc32)cc(-c2ccc(=O)n(C)c2)n1 [Example 311] ... < 500 nM
CCCS(=O)(=O)Nc1cc(Oc2c(C)cccc2C#N)nc(-c2cc(C)c(=O)n(C)c2)n1 [Example 129] ... < 500 nM
Cc1cc(-c2cc(NS(=O)(=O)C(C)C)nc(Oc3ccc(F)cc3F)n2)cn(C)c1=O [Example 62] ... < 500 nM
Cc1cccc(C#N)c1Oc1nc(NS(=O)(=O)C(C)C)cc(-c2cc(C)c(=O)n(C)c2)n1 [Example 24] ... < 500 nM
CCC[C@H](C)S(=O)(=O)Nc1cc(-c2cc(C)c(=O)n(C)c2)nc(Oc2c(C)cccc2Cl)n1 [Example 223] ... < 500 nM
Cc1cccc(F)c1Oc1nc(NCc2ccccn2)cc(-c2ccc(=O)n(C)c2)n1 [Example 302] ... < 500 nM
CCCCS(=O)(=O)Nc1cc(-c2cc(C)c(=O)n(C)c2)nc(Oc2c(C)cccc2C#N)n1 [Example 22] ... < 500 nM
Cc1cccc(F)c1Oc1nc(NS(=O)(=O)CCC(C)C)cc(-c2ccc(=O)n(C)c2)n1 [Example 248] ... < 500 nM

Please turn your attention to the following entry.
stdin: Quick one: IC50 of CCCCS(=O)(=O)Nc1cc(-c2cc(Cl)c(=O)n(C)c2)nc(Oc2c(C)cccc2C#N)n1 [Example 114] ?
stdout: < 500 nM

* * *

- assayTarget: CREBBP (Homo sapiens (Human))
- assayText: In vitro enzyme inhibition assay - CREBBP inhibition (AlphaScreen, biotinylated H4-tetraacetyl peptide)
- Type: binding
- conditionSummary: Table 28; AlphaScreen, H4-tetraacetyl peptide
pIC50: −log10 of the molar value.
assayEndpoint: pIC50

Past entries and their recorded results:
Cn1cc(-c2cc(Nc3ccccc3)nc(Oc3ccc(F)cc3F)n2)ccc1=O [Example 276] ... > 6.30
Cc1cc(-c2cc(NS(=O)(=O)C(C)C)nc(Oc3cc(C(C)C)ccc3Cl)n2)cn(C)c1=O [Example 40] ... > 6.30
CCC(C)S(=O)(=O)Nc1cc(-c2cc(C)c(=O)n(C)c2)nc(Oc2c(C)cccc2C)n1 (centres unmarked) [Example 84] ... > 6.30
CCCCS(=O)(=O)Nc1cc(-c2cc(C)c(=O)n(C)c2)nc(Oc2cc(OC)ccc2C#N)n1 [Example 35] ... > 6.30
Cn1cc(-c2cc(NS(=O)(=O)CCCC(F)(F)F)nc(Oc3c(F)cccc3Cl)n2)ccc1=O [Example 232] ... > 6.30

stdin: Quick one: pIC50 of CCC(F)(F)S(=O)(=O)Nc1cc(-c2ccc(=O)n(C)c2)nc(Oc2c(C)cccc2Cl)n1 [Example 170] ?
stdout: > 6.30

stdin: Quick one: pIC50 of CCCCS(=O)(=O)Nc1cc(-c2cc(F)c(=O)n(C)c2)nc(Oc2c(C)cccc2C)n1 [Example 86] ?
stdout: > 6.30

stdin: Quick one: pIC50 of CCCCS(=O)(=O)Nc1cc(-c2cc(C)c(=O)n(C)c2)nc(Oc2cnn(C)c2)n1 [Example 74] ?
stdout: > 6.30
